Attribute: growth
- System: 786-0 renal
- protocol_details: NCI-60 one-dose screen, 48 h (100 = growth as untreated, 0 = no growth, -100 = all killed)
- assay_conditions: 10 µM unless noted
About 83,000 compounds went through this panel and 20% of them were active in at least one assay; those are over-represented in the sample as a whole.

molecule	growth / %
COC(=O)CC/C(C)=N\Nc1ccc([N+](=O)[O-])cc1	75.4
COc1ccc(NC(=S)/N=c2\oc3c(OC)cccc3cc2-c2cc3ccccc3[nH]2)cc1	65
O=C(Cc1c(F)cccc1Cl)Nc1ccc(S(=O)(=O)Nc2ncccn2)cc1	103
O=S(=O)(c1ccccc1)n1ccc(-c2ccc3c(c2)CCO3)n1	90.3
O=[N+]([O-])c1ccc(S(=O)(=O)N2CCN(c3ccnc4cc(Cl)ccc34)CC2)c([N+](=O)[O-])c1	80.8
CCN(CC)S(=O)(=O)c1ccc2[nH]c(=O)cc(C(=O)Nc3ccc(OC)cc3OC)c2c1	107
COc1cc(C2C3=C(COC3=O)Nc3c2ccc2c3CCCC2)cc2c1OCO2 (stereo not given)	18.7
O=C(/C=C/c1ccccc1)n1c(-c2ccc(Cl)cc2)nc2ccccc21	-17.7
NS(=O)(=O)c1ccc(NCC(=O)Nc2ccc(-c3nc4ccccc4s3)cc2)cc1	12.1
COc1ccc(/C=C/C(=O)/C=C/c2cc3ccc(Cl)cc3[nH]c2=O)cc1	94.9
Cc1ccc2c(c1)C(=O)C(c1c(-c3[nH]c(=O)c4ccc(C)cc4c3O)c(O)c3ccccc3c1O)=NC2=O	12.7
O=[N+]([O-])c1c(S(=O)(=O)O)cc2cc(S(=O)(=O)O)ccc2c1[N+](=O)[O-]	103
O=S(=O)(NCCNc1cc(-c2cn(-c3ccccc3)nc2-c2ccccc2)ccn1)c1cccc2ccccc12	49.7
Cn1c(C(N)=O)cc2c1-c1nc(NC3CCCCC3)ncc1CCC2	91.2
O=C(Nc1ccc(I)cc1)c1cccc([N+](=O)[O-])c1O	16.6
Cc1ccc(Nc2ncnc3c2sc2ncccc23)cc1	101
COc1cc(/C=C2\C=C(c3ccc(F)cc3)N(Cc3ccccc3)C2=O)cc(OC)c1OC	66.6
NS(=O)(=O)c1ccc(CN2C(=O)c3cccc4cccc(c34)C2=O)cc1	99.2
O=S(=O)(NCCCNc1nccc(-c2c(-c3ccc(O)cc3)nc3sccn23)n1)c1ccc(F)cc1	16.4
Cc1sc(N=Nc2ccc(N(C)C)cc2)[n+]([O-])c1C	103
